Every entry's value here was drawn from paper PMC9412300.

Experiment: Cell viability in VeroE6, shortened 24 h infection assay
Conditions: African green monkey, VeroE6 cells infected with SARS-CoV-2, CC50 in shortened assay, VeroE6, 1 h preincubation, 24 h infection, top 10 μM
QUANTITY NAME: CC50 at 25 h

Query :: Returns the measured CC50 at 25 h for the input compound. Input: O=C(Nc1ccc([N+](=O)[O-])cc1Cl)c1cc(Cl)ccc1O [Niclosamide]
Result :: > 10 µM

---

Tested on: SARS-CoV-2 B.1.1.7 variant
Test: microbe, parasite or virus in culture
Assay type: cell-based
Conditions: Severe acute respiratory syndrome coronavirus 2, Vero C1008, 48 h; read-out: Vero-E6 (B.1.1.7) IC50
QUANTITY NAME: IC50 (nM)
Give bare numbers, in nM.

O=C(Nc1ccc([N+](=O)[O-])cc1Cl)c1ccccc1O : 296
COC(=O)c1ccc(NC(=O)c2cc(Cl)ccc2O)c(Cl)c1 : 334
O=C(Nc1ccc([N+](=O)[O-])cc1Cl)c1cc(Cl)ccc1O [Niclosamide] : 564

Dear colleague, could you send me IC50 for each of the items below? Thanks.
1. N#Cc1ccc(NC(=O)c2cc(Cl)ccc2O)c(Cl)c1
2. CC(C)(C)c1ccc(O)c(C(=O)Nc2ccc([N+](=O)[O-])cc2Cl)c1

Result ::
[348, 423]

---

Tested on: SARS-CoV-2 WA1 variant
Assay: microbe, parasite or virus in culture
Format: cell-based
Conditions: read-out: H1437 (WA1) IC50
QUANTITY NAME: IC50

Dear colleague, could you send me IC50 for each of the items below? Thanks.
1. O=C(Nc1ccccc1Cl)c1cc(Cl)ccc1O
2. CC(C)(C)c1cccc(C(=O)Nc2ccc(N)cc2Cl)c1O
3. CC(C)(C)c1cc(C(=O)Nc2ccc(C(=O)O)cc2Cl)c(O)c(C(C)(C)C)c1
4. COC(=O)c1ccc(NC(=O)c2cc(C(C)(C)C)ccc2O)c(Cl)c1
5. CC(C)(C)c1cccc(C(=O)Nc2ccc([N+](=O)[O-])cc2Cl)c1O
6. Cc1ccc(O)c(C(=O)Nc2ccc([N+](=O)[O-])cc2Cl)c1
7. COC(=O)c1ccc(NC(=O)c2cc(C3CCCCC3)ccc2O)c(Cl)c1

Result ::
> 20 µM
> 20 µM
> 20 µM
> 20 µM
> 20 µM
2.6 µM
> 20 µM

---

System: SARS-CoV-2 WA1 variant
Experiment: microbe, parasite or virus in culture
Assay type: cell-based
Settings: read-out: H1437 (WA1) IC50
For each of the molecules below, state its IC50.
Answers are plain numbers, in µM.

O=C(Nc1ccc(Br)cc1Cl)c1cc(Cl)ccc1O : 3.49
COc1ccc(O)c(C(=O)Nc2ccc([N+](=O)[O-])cc2Cl)c1 [Compound 4] : 10.9

Kindly consider the entry below.
Query :: Tell me reported IC50 for COc1ccc(O)c(C(=O)Nc2ccc([N+](=O)[O-])cc2Cl)c1 [Compound 12] , tested with SARS-CoV-2 WA1 variant.
Result :: 16.9

---

System: SARS-CoV-2 WA1 variant
Experiment: microbe, parasite or virus in culture
Assay type: cell-based
Conditions: read-out: H1437 (WA1) IC50
pIC50: −log10 of the molar value.
QUANTITY NAME: pIC50

Example results:
COC(=O)c1ccc(NC(=O)c2cc(C(F)(F)F)ccc2O)c(C)c1 : < 4.70
Cc1ccc(NC(=O)c2cc(Cl)ccc2O)c(Cl)c1 : < 4.70

Query :: Returns the measured pIC50 for the input compound. Input: Cc1cc(NC(=O)c2cc(C(C)(C)C)cc(C(C)(C)C)c2O)ccc1C(=O)O
Result :: < 4.70
